Attribution: patent US20200385482A1

Known Cells PE-A Mean (bound hPD-1-mIgG2a) of a selection of binders
systemUnderTest: T1, human PD-L1 (hPD-L1) expressed on transfected 300.19 cells (human, UniProt Q9NZQ7 19-290)
T1 construct: whole, on cells; also called B7H1
T1 sequence (Q9NZQ7 19-290): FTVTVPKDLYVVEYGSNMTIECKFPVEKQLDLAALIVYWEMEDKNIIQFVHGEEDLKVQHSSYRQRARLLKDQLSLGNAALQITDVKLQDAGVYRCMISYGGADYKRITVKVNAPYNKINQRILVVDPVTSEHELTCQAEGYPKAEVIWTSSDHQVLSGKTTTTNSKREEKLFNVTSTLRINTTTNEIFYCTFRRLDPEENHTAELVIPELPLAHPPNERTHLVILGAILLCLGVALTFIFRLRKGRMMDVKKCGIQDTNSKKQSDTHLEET
assayNotes: competition FACS, hPD-L1 300.19 cells, signal = bound hPD-1-mIgG2a, Ab 0.01 ug/ml

# binder, Cells PE-A Mean (bound hPD-1-mIgG2a) (MFI)
records = [
    ("Ab-52 (antibody, V domains shown, also called huPD-L1 Ab # 52) VH: QVQLQESGGGVVQPGRSLRLSCSASGFTFSRHGMHWVRQAPGKGLEWVAVISHDGSVKYYADSMKGRFSISRDNSNNTLYLQMDSLRADDTAVYYCARGLSYQVSGWFDPWGQGTLVTVSS VL: NFMLTQPHSVSESPGKTVTISCTRSSGSIASNYVQWYQQRPGSAPTTVIYEDNQRPSGVPDRFSGSIDSSSNSASLTISGLKTEDEADYYCQSYDSTTPSVFGGGTKLTVL", 11900),
    ("Ab-30 (antibody, V domains shown, also called huPD-L1 Ab # 30) VH: QVQLVQSGGSVVRPGESLRLSCVASGFIFDNYDMSWVRQVPGKGLEWVSRVNWNGGSTTYADAVKGRFTISRDNTKNSLYLQMNNLRAEDTAVYYCVREFVGAYDLWGQGTTVTVSS VL: QSALTQPASVSGSPGQSITISCTGTSSDVGGYNYVSWYQQHPGKAPKLMIYDVSNRPSGVSNRFSGSKSGNTASLTISGLQAEDEADYYCSSYTSSTLPFGGGTKLTVL", 11600),
    ("Ab-55 (antibody, V domains shown, also called huPD-L1 Ab # 55) VH: QVQLVQSGAEVKKPGASVKVSCKASGYTFTSYGISWVRQAPGQGLEWMGWTSPHNGLTAFAQILEGRVTMTTDTSTNTAYMELRNLTFDDTAVYFCAKVHPVFSYALDVWGQGTLVTVSS VL: NFMLTQPHSVSESPGKTVTISCTRSSGSIASNYVQWYQQRPGSSPTTVIYEDNQRPSGVPDRFSGSIDTSSNSASLTISGLKTKDEADYYCQSYDGITVIFGGGTKLTVL", 12900),
]
